- TEST PROTOCOL: blockers of ER-stress CHOP reporter expression – cell-based, unfolded protein response, luciferase reporter, primary screen (AID 2732);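 note: 0% = tunicamycin plus vehicle and 100% = wells without tunicamycin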
- CONDITIONS USED: CHO-K1 CHOP-promoter luciferase, tunicamycin-induced, 15-18 h; at 10 µM
About 8,200 (3.7%) of roughly 220,000 compounds were called active.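 Rule for the calls: active = compounds that reduced the stress-induced luciferase reporter signal by more than about 70% of percent inhibition (limit read from the data); inactive = the rest.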 The full list was thinned out, with actives kept by preference.
Outcomes: yes (1) = active, no (0) = inactive

compound=Cc1ccc(S(=O)(=O)/N=C(/Nc2ccccn2)c2ccc(Cl)cc2)cc1 assigned_label="no (0)"
compound=O=S(=O)(/N=C(/Nc1ccccn1)c1ccccc1)c1ccc(Cl)cc1 assigned_label="no (0)"
compound=Clc1cccc(N=C2NN=C(c3ccc4c(c3)OCCO4)CS2)c1 assigned_label="no (0)"
compound="CCOC(=O)c1ccc(N2C(=O)CC(N(C)Cc3ccccc3)C2=O)cc1 (stereo unspecified)" assigned_label="no (0)"
compound=Cc1ccc(NC(=O)NC(=O)N(C2CCCCC2)S(=O)(=O)c2ccccc2)cc1 assigned_label="yes (1)"
compound="CC(c1ccco1)N(C(=O)Nc1ccccc1)C1CCCCC1 (stereo unspecified)" assigned_label="no (0)"
compound=O=[N+]([O-])/C=C1\CCCCCN1 assigned_label="no (0)"
compound="CCOc1ccc(N2C(=O)CC(N(O)c3ccccc3)C2=O)cc1 (stereo unspecified)" assigned_label="no (0)"
compound=CN(C)c1nc(=Nc2cccc(Cl)c2)ss1 assigned_label="yes (1)"
compound=Cc1ccc(S/C(=N\S(=O)(=O)c2ccc(Cl)cc2)c2ccccc2)cc1 assigned_label="yes (1)"
compound="CCOC(=O)CC1C(=O)NCCN1c1nc2c(C)cccn2c(=O)c1/C=C1\\SC(=S)N(C(C)CC)C1=O (stereo unspecified)" assigned_label="no (0)"

###

- TEST PROTOCOL: blockers of ER-stress CHOP reporter expression – cell-based, unfolded protein response, luciferase reporter, primary screen (AID 2732);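 note: 0% = tunicamycin plus vehicle and 100% = wells without tunicamycin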
- CONDITIONS USED: CHO-K1 CHOP-promoter luciferase, tunicamycin-induced, 15-18 h; at 10 µM
The whole screen tested about 220,000 compounds, of which about 8,200 (3.7%) were called active.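 The calls were made as follows: active = compounds that reduced the stress-induced luciferase reporter signal by more than about 70% of percent inhibition (limit read from the data); inactive = the rest.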 For the sample, actives were picked, then their nearest neighbours and some compounds at random.
Classes used: 1 = active, -1 = inactive

molecule=CCCc1nc2ccccc2c(C(=O)OCc2nnc(-c3cc(OC)c(OC)c(OC)c3)o2)c1CC assigned_label=-1
molecule=Cc1[nH]n(-c2ccccc2)c(=O)c1N=Nc1ccccc1C(=O)N1CCCCC1 assigned_label=-1
molecule=Cc1nc(-c2ccccc2)sc1-c1nnc(C2CC2)o1 assigned_label=-1
molecule=O=C(Nc1n[nH]c(C(F)(F)F)n1)c1cccs1 assigned_label=-1
molecule="CCC(C(=O)OCC(=O)Nc1c(Cl)cc(Cl)cc1Cl)c1ccccc1 (stereo unspecified)" assigned_label=-1
molecule=O=C(CSc1cccc2cccnc12)N/N=C/c1cccnc1 assigned_label=-1
molecule=Cn1ccc(NC(=O)Nc2ccc(Cl)cc2)n1 assigned_label=-1
molecule=CCCc1nc2ccccc2c(C(=O)OCC(=O)c2ccc3c(c2)NC(=O)CO3)c1CC assigned_label=1
molecule=O=[N+]([O-])c1cccc2ncccc12 assigned_label=-1
molecule="CCC(C(=O)OCC(=O)Nc1ccc(C(=O)Nc2ccc(OC)cc2)cc1)c1ccccc1 (stereo unspecified)" assigned_label=1
molecule=Cc1ccc(C(=O)c2c(NC(=O)c3ccncc3)sc3c2CCCC3)cc1 assigned_label=1

Every entry's value here was drawn from PubChem BioAssay AID2732.
